Target: Neutral amino acid transporter B(0) (Homo sapiens, UniProt Q15758)
Sequence (Q15758 whole entry): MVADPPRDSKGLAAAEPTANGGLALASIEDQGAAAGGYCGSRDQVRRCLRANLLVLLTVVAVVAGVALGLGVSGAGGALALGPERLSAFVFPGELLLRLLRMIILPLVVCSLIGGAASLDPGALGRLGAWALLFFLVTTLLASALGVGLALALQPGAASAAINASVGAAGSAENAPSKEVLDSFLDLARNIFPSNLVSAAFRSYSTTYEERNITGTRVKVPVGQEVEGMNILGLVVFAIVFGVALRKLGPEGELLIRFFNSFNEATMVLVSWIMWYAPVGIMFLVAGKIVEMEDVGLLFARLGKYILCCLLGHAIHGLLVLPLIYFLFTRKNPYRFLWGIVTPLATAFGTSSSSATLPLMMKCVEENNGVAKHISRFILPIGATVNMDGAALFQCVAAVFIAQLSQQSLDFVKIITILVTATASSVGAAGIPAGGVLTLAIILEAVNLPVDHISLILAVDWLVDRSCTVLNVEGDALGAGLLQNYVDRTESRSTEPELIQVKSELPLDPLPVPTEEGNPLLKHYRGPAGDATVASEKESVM
Experiment: Inhibition of ASCT2 (unknown origin)-mediated glutamine transport
measured-property: pIC50
Kindly note that pIC50 refers to -log10 of the concentration in mol/L and answer with the value alone.

Completed entries (count: 2):
1. N[C@@H](CCC(=O)Nc1ccc([N+](=O)[O-])cc1)C(=O)O
3.00
2. N[C@@H](COC(=O)c1ccc(-c2ccccc2)cc1)C(=O)O
4.52

The record that follows has no pIC50 shown yet.
*Q* Name the recorded pIC50 for `N#Cc1cc(Br)ccc1/N=c1\ssnc1Cl` .
*A* 5.43
